Target: T1, human melanocortin-4 receptor (recombinant hMC4-R) (human, UniProt P32245 1-332)
T1 construct: whole, on cells; Ki assays used membrane homogenates of HEK-293 cells expressing recombinant hMC4-R; cAMP assays used HEK-293 T-REx cells induced with 0.1 ng/mL doxycycline; also called human MC4-R; MC4 receptor
T1 sequence (P32245 whole entry): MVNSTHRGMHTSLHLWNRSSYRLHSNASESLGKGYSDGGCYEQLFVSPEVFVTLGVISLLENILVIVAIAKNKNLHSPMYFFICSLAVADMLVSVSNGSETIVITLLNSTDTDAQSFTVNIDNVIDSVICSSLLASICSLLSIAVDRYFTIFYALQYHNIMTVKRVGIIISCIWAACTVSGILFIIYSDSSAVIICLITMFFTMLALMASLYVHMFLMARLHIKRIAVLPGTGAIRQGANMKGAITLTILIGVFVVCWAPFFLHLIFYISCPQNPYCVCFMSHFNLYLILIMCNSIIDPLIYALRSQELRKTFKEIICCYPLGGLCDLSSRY
Test: competition with labelled NDP-α-MSH ([I125] or Eu), hMC4-R HEK-293 membranes
Method: After incubation for 60 minutes at 37° C., the assay mixture was filtered and the membranes washed three times with ice-cold buffer. Filters were dried and counted in a gamma counter for bound radioactivity. […] Maximal specific binding (100%) was defined as the difference in radioactivity (cpm) bound to cell membranes in the absence and presence of 1 μM NDP-α-MSH. […] Ki values for test peptides of the present invention were determined using Graph-Pad Prism® curve-fitting software. […]
pKi: −log10 of the molar value. Numbered stars: 1 amine (or outer) side, 2 acyl side, 3 side chain; on linkers, the order of the positions; unused ones are H or OH. Bridge positions count the residues as written; N and C are the ends. Square brackets hold non-standard residues; d marks the D form. * marks the point of attachment. Ser(Bzl) = O-benzyl-serine, O=C([C@H](COCc1ccccc1)N[*:1])[*:2]; Orn = NCCC[C@H](N)C(=O)O; NHcPr = C1CC1N*
Entries and their measured pKi follow.

[
  {
    "Binder": "Ac-RE[Orn](Ac)[dF]RW[Orn]-NH2 (lactam 2-7) [Peptide No. 33: Ac-Arg-cyclo(Glu-Orn(Acetyl)-D-Phe-Arg-Trp-Orn)-NH2]",
    "pKi": 8.15
  },
  {
    "Binder": "Ac-RDQ[dF]RWK-NHcPr (lactam 2-7, also called Peptide Structure (Asp...Lys) in the row of No. 19) [Asp...Lys analog of peptide No. 19: Ac-Arg-cyclo(Asp-Gln-D-Phe-Arg-Trp-Lys)-NH-cycProp]",
    "pKi": 7.19
  },
  {
    "Binder": "Ac-RE[Ser(Bzl)][dF]RW[Orn]-OH (lactam 2-7) [Peptide No. 17: Ac-Arg-cyclo(Glu-Ser(Bzl)-D-Phe-Arg-Trp-Orn)-OH]",
    "pKi": 8.22
  }
]
